test system: Plasmodium falciparum; assay: GSK_TCMDC: Inhibition of Plasmodium falciparum Dd2 in whole red blood cells, using parasite LDH activity as an index of growth. Test compounds present at 2uM; type: functional
Threshold check on Inhibition: at or above 80% gives rule met, strictly below gives rule not met.

| molecule | test-system | assigned-class |
| --- | --- | --- |
| O=c1cc(NCCCNCc2cccc(I)c2)[nH]c2ccccc12 | Plasmodium falciparum | rule not met |
| Cl.Nc1nc(N)c2c(Cl)c(N(Cc3ccccc3)Cc3ccccc3)ccc2n1 | Plasmodium falciparum | rule not met |
| O=C(N[C@@H](Cc1ccccc1)C(=O)NCCN1CCCCC1)c1ccc(O)c(-c2ccc(Cl)c(Cl)c2)c1 | Plasmodium falciparum | rule met |
| O=C(NCCN1CCC(NC(=O)c2ccc(-c3ccccn3)s2)CC1)c1ccc(Cl)c(Cl)c1.O=C(O)C(F)(F)F | Plasmodium falciparum | rule not met |
| CC1SC(=S)NC1C(=O)O (stereo not drawn) | Plasmodium falciparum | rule not met |
| O=C(NCc1ccc2c(c1)OCO2)c1nn(CCN2CCC(N3CCCC3)CC2)cc1-c1ccc(Cl)c(Cl)c1 | Plasmodium falciparum | rule not met |
| Cc1cc(CNCC(CCNc2cc(=O)c3ccccc3[nH]2)NCc2cc(Br)cc(Br)c2)oc1C (stereo not drawn) | Plasmodium falciparum | rule met |
| O=C(NCc1ccco1)c1ccc(CN2CCN(C(c3ccccc3)c3ccccc3)CC2)cc1 | Plasmodium falciparum | rule met |
| CC(C)[C@H](NC(=O)c1ccc(O)c(-c2cccc(C(F)(F)F)c2)c1)C(=O)NC1CCCc2ccccc21 (stereo partly drawn) | Plasmodium falciparum | rule not met |
| O=C(Nc1ccc(-c2csc(-c3nc4ccccc4[nH]3)c2)cc1)Nc1ccc(F)c(F)c1F | Plasmodium falciparum | rule not met |
| N=C(N)Nc1nc(-c2cccc(NC(=O)NCC(c3ccccc3)c3ccccc3)c2)cs1 | Plasmodium falciparum | rule met |
| Cc1cccc2nc(-c3ccc(-c4cccc(NC(=O)Nc5ccc(F)c(F)c5F)c4)cc3)[nH]c12 | Plasmodium falciparum | rule met |
| CCOc1cc2ncnc(Nc3ccc(OCc4ccccc4OC)c(OC)c3)c2cc1OCC.Cl | Plasmodium falciparum | rule not met |
